// provenance: patent US20200031778A1

Listing of entries alongside the reported LogP.
Run description: Log P by HPLC on reversed phase columns (EEC directive 79/831 Annex V.A8; methods [a], [b], [c])
Type: physicochemical

CCCC(O)(Cn1cncc1C#N)c1ccc(C2CC2)cc1Cl (centres unmarked)
3.19^[a]
N#Cc1cncn1CC(O)(C#CC1(c2ccc(F)cc2)CC1)C1(Cl)CC1 (centres unmarked)
2.98^[a]
CC(O)(Cn1cncc1F)c1cnc(Oc2ccc(C(F)F)cc2)cc1C(F)(F)F (centres unmarked)
2.17^[a]
CC(O)(Cn1cncc1F)c1ccc(Oc2ccc(Br)cc2)nc1C(F)(F)F (centres unmarked)
2.35^[a]
N#Cc1cncn1CC(O)(c1ccc(F)c(F)c1F)C1(F)CC1 (centres unmarked)
2.18^[a]
N#Cc1cncn1CC(O)(c1ccc(Br)cc1Cl)C1CC1 (centres unmarked)
2.88^[a]
C=CCOC(Cn1cncc1C#N)c1ccc(Oc2ccc(Br)cc2)cc1C(F)(F)F (centres unmarked)
4.69^[a]
CC(=O)c1cncn1CC(C)(O)c1cnc(Oc2ccc(C(F)(F)F)cc2)cc1Cl (centres unmarked)
2.76^[a]
N#Cc1cncn1CC(O)(CC1CC1)c1ccc(Cl)c(Br)c1 (centres unmarked)
2.86^[a]
N#Cc1cncn1CC(O)(CC1CC1)c1ccc(Br)cc1Br (centres unmarked)
2.82^[a]

Task: Query: LogP; subject: N#Cc1cncn1CC(O)(c1c(F)cc(F)cc1Br)C1(Cl)CC1 (centres unmarked)
Output: 2.49^[a]

Task: Give its LogP value. Item: OC(Cn1cncc1F)c1cnc(Oc2ccc(C(F)F)cc2)cc1C(F)(F)F (centres unmarked)
Output: 2.11^[a]
